Attribute: ADCC Maximum lysis (%)
- test_target: human Claudin 18.2 (hCLDN18.2) (human, UniProt P56856-2 1-261)
- method_summary: cell-based or functional assay
Give the number; % is assumed, so skip it.

Solved entries (count: 2):
[[record]]
binder = "ch-76D11 (antibody, V domains shown, also called chimeric antibody of clone 76D11) VH: QVQLQQSGAELMKPGASVKLSCKASGYTFTGYWIEWIKQRPGHGLEWIGEILPGSGSIKYNEKFKDKATFTADTSSNTAYMQLSSLTTEDSAIYYCARKGLRGNSFDYWGQGTTLTVSS VL: DIVMTQSPSSLTVTAGEKVTMSCKSSQSLLNSGNQKNYLTWYQQKPGQPPKRLIYWASTRESGVPDRFTGSGSGTDFTLTISSVQAEDLAVYYCQNDYYYPFTFGSGTKLEIK"
numeric_value = 45.6

[[record]]
binder = "ch-251H11 (antibody, V domains shown, also called chimeric antibody of clone 251H11) VH: QVQLKQSGAELVRPGASVKLSCKTSGYTFTTFWIHWIKQRSGQGLEWIAKIYPGTGYTYYNEKFKGKATLTADKSSSAAYMQLSSLKSEDSAVYFCAREGYGKGNAVDFWGQGSSVTVSS VL: DIVMTQSPSSLTVTAGEKVTMSCKSSQSLFNSGNQKNYLTWYQQKPGQPPKLLIYWASTRESGVPDRFTGSGSGTDFTLTIDSVQAEDLAVYYCQNDYTYPSTFGGGTNLEIK"
numeric_value = 38.8


Kindly consider the entry below.
Value of ADCC Maximum lysis (%) reported for the binder ch-252F11 (antibody, V domains shown, also called chimeric antibody of clone 252F11) VH: EIQLVESGGGLVRPGGSLKLSCAASGFSFKNYVMSWVRQSPERRLEWVAEIRTGGDYTYYVDTVTGRFTISRDNAKNTLYLEMTSLRSEDTATYYCARVGYGNSLDYWGQGTTLTVSS VL: DIVMTQSPSSLTVTAGEKVTMSCKSSQSLLNSGNQKNYLTWYQQKPGQPPKLLIYWASTRESGVPDRFTGSGSGTDFTLTISSVQAEDLAVYSCQNNYFYPLTFGAGTELELK is 31.1

These data points were gathered from patent US20220411492A1.
